SYSTEM NAME: CLK1 (Homo sapiens)
PROCEDURE TEXT: biochemical
QUANTITY MEASURED: IC50 (nM)
The figure you give is taken to be in nM; do not add the unit.

Some molecules with recorded IC50:
COC(=N)c1nc2ccc3ncn(C(C)C)c(=O)c3c2s1 [Compound 12d]
160
CCOC(=N)c1nc2ccc3ncn(CCOC)c(=O)c3c2s1 [Compound 14b]
1900
CCOC(=N)c1nc2ccc3ncn(C(C)C)c(=O)c3c2s1 [Compound 14d]
340

Note: attention shifts to another entry.
# lookup: IC50 of COC(=N)c1nc2ccc3ncn(C4CC4)c(=O)c3c2s1 [Compound 12a]
31

====

SYSTEM NAME: CLK1 (Homo sapiens, UniProt P49759)
Sequence (P49759 whole entry): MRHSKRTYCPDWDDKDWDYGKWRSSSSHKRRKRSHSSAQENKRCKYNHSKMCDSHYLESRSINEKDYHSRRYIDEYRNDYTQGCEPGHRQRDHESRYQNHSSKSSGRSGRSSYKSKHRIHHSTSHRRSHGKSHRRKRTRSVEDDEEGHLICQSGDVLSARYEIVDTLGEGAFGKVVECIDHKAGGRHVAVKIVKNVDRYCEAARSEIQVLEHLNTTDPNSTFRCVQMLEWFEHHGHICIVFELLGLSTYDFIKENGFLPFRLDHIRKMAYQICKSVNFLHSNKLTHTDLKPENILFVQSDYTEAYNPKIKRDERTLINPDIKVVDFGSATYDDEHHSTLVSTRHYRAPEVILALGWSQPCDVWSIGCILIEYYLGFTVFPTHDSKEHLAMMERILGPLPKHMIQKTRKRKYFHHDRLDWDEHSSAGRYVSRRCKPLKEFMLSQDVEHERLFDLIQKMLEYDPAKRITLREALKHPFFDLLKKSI
SETUP CONDITIONS: read-out: CLK1 IC50, 15 μM ATP, 30 min, 30 °C, triplicate
QUANTITY MEASURED: IC50 (nM)
The figure you give is taken to be in nM; do not add the unit.

Some molecules with recorded IC50:
COCCn1cnc2ccc3nc(C(=N)OC(C)C)sc3c2c1=O [Compound 15b]
2100
COCCCn1cnc2ccc3nc(C(=N)OC(C)C)sc3c2c1=O [Compound 15c]
1200
COC(=N)c1nc2ccc3ncn(CCN(C)C)c(=O)c3c2s1 [Compound 12i]
1800
CC(C)n1cnc2ccc3nc(C(=N)OCc4ccccc4)sc3c2c1=O [Compound 13d]
270

# lookup: IC50 of COCCn1cnc2ccc3nc(C(=N)OC)sc3c2c1=O [Compound 12b]
510

====

SYSTEM NAME: CLK1 (Homo sapiens)
PROCEDURE TEXT: biochemical
Listed next: entries and their corresponding IC50.
The figure you give is taken to be in nM; do not add the unit.

COC(=N)c1nc2ccc3ncn(C4CCC4)c(=O)c3c2s1 [Compound 12f]
91
COC(=N)c1nc2ccc3ncn(C4CCCCC4)c(=O)c3c2s1 [Compound 12g]
380
COC(=N)c1nc2ccc3ncn(-c4ccc(C)cc4)c(=O)c3c2s1 [Compound 12k]
880
N=C(OCc1ccccc1)c1nc2ccc3ncn(C4CCCC4)c(=O)c3c2s1 [Compound 13e]
320

Note: attention shifts to another entry.
# lookup: IC50 of COC(=N)c1nc2ccc3ncn(-c4ccc(OC)cc4)c(=O)c3c2s1 [Compound 12l]
7900

====

SYSTEM NAME: GSK-3α/β
PROCEDURE TEXT: In vitro kinase assay GSK-3α/β, GS-1 peptide substrate
Type: biochemical, Porcine
SETUP CONDITIONS: 15 μM ATP, 30 min, 30 °C, triplicate; <50% inhibition at 10 μM = IC50 >10 μM
QUANTITY MEASURED: IC50

Some compounds with recorded IC50:
COCCn1cnc2ccc3nc(C#N)sc3c2c1=O [Compound 11b]
≥ 10 µM
COc1ccc2c(c1)[nH]c1c(C)nccc12 [Harmine, reference compound]
> 10 µM
COC(=N)c1nc2ccc3ncn(-c4ccc(N(C)C)cc4)c(=O)c3c2s1 [Compound 12m]
> 10 µM

Note: attention shifts to another entry.
# lookup: IC50 of N=C(OCc1ccccc1)c1nc2ccc3ncn(C4CC4)c(=O)c3c2s1 [Compound 13a]
0.1 µM

====

SYSTEM NAME: CK1δ/ε
PROCEDURE TEXT: In vitro kinase assay CK1δ/ε, CK1-specific peptide substrate
Format: biochemical, Porcine
QUANTITY MEASURED: IC50
A complete answer gives the number followed by the unit.

COc1ccc2c(c1)[nH]c1c(C)nccc12 [Harmine, reference compound]
1.5 µM

Note: attention shifts to another entry.
# lookup: IC50 of COC(=N)c1nc2ccc3ncn(C(C)C)c(=O)c3c2s1 [Compound 12d]
5.4 µM

====

SYSTEM NAME: GSK-3α/β
PROCEDURE TEXT: In vitro kinase assay GSK-3α/β, GS-1 peptide substrate
Type: biochemical, Porcine
Listed next: entries and their corresponding pIC50.
By convention, pIC50 is the negative base-10 log of a molar concentration.

Some compounds with recorded pIC50:
COCCCn1cnc2ccc3nc(C#N)sc3c2c1=O [Compound 11c]
5.92
CC(C)n1cnc2ccc3nc(C(=N)OCc4ccccc4)sc3c2c1=O [Compound 13d]
7.24
CC(C)OC(=N)c1nc2ccc3ncn(C4CC4)c(=O)c3c2s1 [Compound 15a]
6.38
COCCn1cnc2ccc3nc(C(=N)OC(C)C)sc3c2c1=O [Compound 15b]
5.60
CCOC(=N)c1nc2ccc3ncn(C4CC4)c(=O)c3c2s1 [Compound 14a]
6.70

# lookup: pIC50 of COC(=N)c1nc2ccc3ncn(CCN4CCOCC4)c(=O)c3c2s1 [Compound 12j]
5.92

# lookup: pIC50 of COCCCn1cnc2ccc3nc(C(=N)OC)sc3c2c1=O [Compound 12c]
6.92

====

SYSTEM NAME: CLK1 (Homo sapiens, UniProt P49759)
PROCEDURE TEXT: biochemical
QUANTITY MEASURED: IC50 (nM)
The figure you give is taken to be in nM; do not add the unit.

Some molecules with recorded IC50:
COCCCn1cnc2ccc3nc(C#N)sc3c2c1=O [Compound 11c]
1300
CCOC(=N)c1nc2ccc3ncn(CCCOC)c(=O)c3c2s1 [Compound 14c]
490
COC(=N)c1nc2ccc3ncn(C)c(=O)c3c2s1 [Compound 12n]
80

# lookup: IC50 of COCCCn1cnc2ccc3nc(C(=N)OC)sc3c2c1=O [Compound 12c]
210

# lookup: IC50 of COC(=N)c1nc2ccc3ncn(C4CCCC4)c(=O)c3c2s1 [Compound 12e]
290

# lookup: IC50 of COC(=N)c1nc2ccc3ncn(CCN4CCOCC4)c(=O)c3c2s1 [Compound 12j]
690

# lookup: IC50 of CN(C)n1cnc2ccc3nc(C(=N)OCc4ccccc4)sc3c2c1=O [Compound 13h]
1400

====

Listed next: entries and their corresponding pIC50.
SYSTEM NAME: CDK5/p25 (Homo sapiens, UniProt Q00535)
Construct: made in house
Sequence (Q00535 whole entry): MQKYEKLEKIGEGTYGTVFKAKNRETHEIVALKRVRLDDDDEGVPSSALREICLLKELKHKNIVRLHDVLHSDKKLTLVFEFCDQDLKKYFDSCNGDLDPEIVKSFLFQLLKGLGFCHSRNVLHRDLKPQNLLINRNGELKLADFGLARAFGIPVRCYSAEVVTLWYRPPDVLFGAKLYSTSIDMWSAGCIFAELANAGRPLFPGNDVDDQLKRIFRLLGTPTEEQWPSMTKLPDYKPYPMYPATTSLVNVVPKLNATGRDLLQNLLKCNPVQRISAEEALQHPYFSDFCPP
Sequence (Q15078 99-307 partner limits assumed): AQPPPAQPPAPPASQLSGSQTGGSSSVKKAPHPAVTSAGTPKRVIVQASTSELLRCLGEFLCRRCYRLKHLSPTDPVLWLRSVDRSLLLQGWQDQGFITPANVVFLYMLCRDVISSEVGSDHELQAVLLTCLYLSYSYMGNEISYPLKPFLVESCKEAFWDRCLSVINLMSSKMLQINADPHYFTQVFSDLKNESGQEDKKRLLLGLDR
PROCEDURE TEXT: In vitro kinase assay CDK5/p25, [γ-33P]ATP, histone H1 substrate
Assay type: biochemical
pIC50: −log10 of the molar value.

Some compounds with recorded pIC50:
COC(=N)c1nc2ccc3ncn(C(C)C)c(=O)c3c2s1 [Compound 12d]
5.52
COC(=N)c1nc2ccc3ncn(-c4ccc(OC)cc4)c(=O)c3c2s1 [Compound 12l]
< 5.00
COC(=N)c1nc2ccc3ncn(-c4ccc(N(C)C)cc4)c(=O)c3c2s1 [Compound 12m]
< 5.00
N=C(OCc1ccccc1)c1nc2ccc3ncn(C4CCC4)c(=O)c3c2s1 [Compound 13f]
< 5.00

# lookup: pIC50 of COC(=N)c1nc2ccc3ncn(C4CCC4)c(=O)c3c2s1 [Compound 12f]
< 5.00

# lookup: pIC50 of COC(=N)c1nc2ccc3ncn(N(C)C)c(=O)c3c2s1 [Compound 12h]
< 5.00

# lookup: pIC50 of CCOC(=N)c1nc2ccc3ncn(CCCOC)c(=O)c3c2s1 [Compound 14c]
< 5.00

# lookup: pIC50 of N=C(OCc1ccccc1)c1nc2ccc3ncn(C4CC4)c(=O)c3c2s1 [Compound 13a]
< 5.00

# lookup: pIC50 of CC(C)OC(=N)c1nc2ccc3ncn(C4CC4)c(=O)c3c2s1 [Compound 15a]
< 5.00

# lookup: pIC50 of CCOC(=N)c1nc2ccc3ncn(C4CC4)c(=O)c3c2s1 [Compound 14a]
< 5.00

# lookup: pIC50 of COC(=N)c1nc2ccc3ncn(CCN4CCOCC4)c(=O)c3c2s1 [Compound 12j]
< 5.00

====

SYSTEM NAME: DYRK1A (Rattus norvegicus, UniProt Q63470)
PROCEDURE TEXT: In vitro kinase assay DYRK1A, Woodtide substrate
Type: biochemical
QUANTITY MEASURED: log10(IC50) (log10 of the value in nM)
Please keep in mind that the values are log10 of IC50 expressed in nM.

Some compounds with recorded log10(IC50):
COCCCn1cnc2ccc3nc(C(=N)OCc4ccccc4)sc3c2c1=O [Compound 13c]
2.20
COC(=N)c1nc2ccc3ncn(C(C)C)c(=O)c3c2s1 [Compound 12d]
2.15

# lookup: log10(IC50) of N=C(OCc1ccccc1)c1nc2ccc3ncn(C4CC4)c(=O)c3c2s1 [Compound 13a]
1.78

# lookup: log10(IC50) of COCCCn1cnc2ccc3nc(C#N)sc3c2c1=O [Compound 11c]
3.89

# lookup: log10(IC50) of CCOC(=N)c1nc2ccc3ncn(C4CCCC4)c(=O)c3c2s1 [Compound 14e]
2.36

# lookup: log10(IC50) of COC(=N)c1nc2ccc3ncn(-c4ccc(C)cc4)c(=O)c3c2s1 [Compound 12k]
2.58

# lookup: log10(IC50) of COC(=N)c1nc2ccc3ncn(C4CCCC4)c(=O)c3c2s1 [Compound 12e]
1.86
